Please respond with reported Plant response rating, Goosegrass for every item in the list.
- Tested on: goosegrass
- ASSAY_TEXT: Test C pre-/postemergence herbicide test
- Type: in vivo, Eleusine indica
- STUDY_CONDITIONS: 125 g ai/ha; scale 0 (no effect) to 100 (complete control); visual, 12 to 14 days; preemergence
# respond with the number and nothing more

Record CCCCn1nc(C(C)(C)C)cc1C(=O)Nc1cccc(C(=O)NCC)c1 [Compound 41] / goosegrass, Plant response rating, Goosegrass recorded as 30

Record CCCn1nc(C(C)(C)C)cc1C(=O)Nc1cccc(C(=O)NCC)c1 [Compound 57] / goosegrass, Plant response rating, Goosegrass recorded as 75

Record CCn1nc(C(C)(C)C)cc1C(=O)Nc1cncc(C(=O)N(C)C)n1 [Compound 287] / goosegrass, Plant response rating, Goosegrass recorded as 100

Record CCn1nc(C(C)(C)C)cc1C(=O)Nc1cc(C#N)ccc1F [Compound 140] / goosegrass, Plant response rating, Goosegrass recorded as 0

Record CCn1nc(C(C)(C)C)cc1C(=O)Nc1cccc(C#N)c1 [Compound 139] / goosegrass, Plant response rating, Goosegrass recorded as 85

Record CCc1nc(C(C)(C)C)sc1C(=O)Nc1cccc(C(=O)NCC2CC2)n1 [Compound 215] / goosegrass, Plant response rating, Goosegrass recorded as 40

Data origin, for the record: patent US20060069132A1
